FYI, the data here is from patent US8524750B2.

Tested on: Mycobacterium tuberculosis H37Rv
Assay: Mycobacterium tuberculosis H37Rv Inhibition Assay (Whole Cell Assay)
Type: cell-based
Settings: ATCC 25618 / H37Rv, H37Rv strain (ATCC25618), Middlebrook 7H9, six days at 37° C., resazurin fluorescence after 48 hours
value-type: MIC

# example entries with known answers
>  <molecule>
Cc1ccn(C(C)c2nnc(Nc3ccn(Cc4c(F)cccc4F)n3)s2)n1 (stereo not shown)

>  <MIC>
≤ 1 µM

$$$$
>  <molecule>
Cc1csc(C(C)(C)c2nnc(Nc3ccn(Cc4c(F)cccc4Cl)n3)s2)n1

>  <MIC>
1 to 4 µM

$$$$
>  <molecule>
CC(=O)Nc1ccc(F)c(Cn2ccc(Nc3nnc(C(C)n4nc(C)cc4C)s3)n2)c1F (stereo not shown) [Intermediate 122]

>  <MIC>
> 10 µM

$$$$

Here is the next item to consider.
Query :: Give the measured MIC of Cc1ccn(C(C)c2nnc(Nc3ccn(Cc4c(F)cccc4Cl)n3)s2)n1 (racemic) .
Result :: ≤ 1 µM

====

Biological target: Mycobacterium tuberculosis InhA (Mycobacterium tuberculosis)
Construct: made in house; host or cells: E. coli
Sequence (P9WGR1 whole entry, looked up): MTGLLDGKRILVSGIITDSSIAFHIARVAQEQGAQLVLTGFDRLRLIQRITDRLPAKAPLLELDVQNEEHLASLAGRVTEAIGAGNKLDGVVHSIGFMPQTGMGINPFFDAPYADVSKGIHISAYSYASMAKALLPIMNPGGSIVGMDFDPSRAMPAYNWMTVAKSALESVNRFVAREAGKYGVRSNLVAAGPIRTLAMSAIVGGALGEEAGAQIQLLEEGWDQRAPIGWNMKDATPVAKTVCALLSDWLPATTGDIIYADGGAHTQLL
Assay: Mycobacterium tuberculosis InhA Inhibition Assay (Enzyme Assay)
Format: biochemical
Settings: 5 nM InhA, 50 μM DDCoA, 50 μM NADH, PIPES buffer pH 6.8; initial velocities of NADH consumption; read-out: IC50 value
Property: IC50; scope: individual compounds

>  <compound>
Cc1csc(C(C)c2nnc(Nc3ccn(Cc4cccc(F)c4F)n3)s2)n1 (centres unmarked) [Example 16]

>  <IC50>
< 119 nM

$$$$
>  <compound>
Cc1cc(C)n(C(C)c2nnc(Nc3ccn(Cc4cc(F)ccc4C(F)(F)F)n3)s2)n1 (centres unmarked) [Example 9]

>  <IC50>
< 107 nM

$$$$
>  <compound>
FC(F)(F)c1ccn(Cc2nnc(Nc3ccn(Cc4ccccc4)n3)s2)n1 [Example 61]

>  <IC50>
247 to 1230 nM

$$$$

Query :: Value lookup for IC50; key = Cc1cc(C)n(C(C)c2nnc(Nc3ccn(Cc4ccccc4C)n3)s2)n1 (centres unmarked) [Example 20]
Result :: < 127 nM

Query :: If you can, please state the reported IC50 value of Cc1csc([C@](C)(O)c2nnc(Nc3ccn(Cc4c(F)cccc4Cl)n3)s2)n1 (single isomer, unassigned) [Example 70] .
Result :: < 111 nM

Query :: What value of IC50 has been recorded for this entry: Cc1ccn(C(C)c2nnc(Nc3ccn(Cc4ccccc4Br)n3)s2)n1 (centres unmarked) [Example 5]
Result :: < 113 nM

Query :: # get_value(readout='IC50', item= Cc1csc(C(C)(O)c2nnc(Nc3ccn(Cc4c(F)cccc4Cl)n3)s2)n1 (racemic) [Example 30] )
Result :: < 111 nM

Query :: I would be grateful if you could share the reported IC50 for Cc1ccn(C(C)c2nnc(Nc3ccn(Cc4c(F)cccc4Cl)n3)s2)n1 (racemic) [Example 38] .
Result :: < 120 nM

====

# Lookup of reported MIC keyed by entry
Tested on: Mycobacterium tuberculosis H37Rv
Experiment: Mycobacterium tuberculosis H37Rv Inhibition Assay (Whole Cell Assay)
Assay type: cell-based
Conditions: ATCC 25618 / H37Rv, H37Rv strain (ATCC25618), Middlebrook 7H9, six days at 37° C., resazurin fluorescence after 48 hours

>  <compound>
Cc1ccn(C(C)c2nnc(Nc3ccn(Cc4cccc(Cl)c4F)n3)s2)n1 (stereo not drawn)

>  <MIC>
1 to 4 µM

$$$$
>  <compound>
Cc1cc([N+](=O)[O-])nn1C(C)c1nnc(Nc2ccn(Cc3ccccc3Cl)n2)s1 (stereo not drawn)

>  <MIC>
1 to 4 µM

$$$$

Query :: // MIC lookup, key: Cc1ccn(Cc2nnc(Nc3ccn(Cc4c(F)cccc4Cl)n3)s2)n1
Result :: 1 to 4 µM

Query :: For the compound shown here, O=[N+]([O-])c1ccn(Cc2nnc(Nc3ccn(Cc4c(Cl)cccc4Cl)n3)s2)n1 , give the reported MIC.
Result :: > 10 µM

Query :: Entry Fc1cccc(Cl)c1Cn1ccc(Nc2nnc(Cn3ccc(C(F)(F)F)n3)s2)n1 has what MIC?
Result :: > 10 µM

Query :: Name the recorded MIC for Cc1cc(C)n(C(C)c2nnc(Nc3ccn(Cc4ccccc4F)n3)s2)n1 (stereo not drawn) .
Result :: 1 to 4 µM

Query :: Data request, read-out MIC, for Cc1csc(C(C)c2nnc(Nc3ccn(Cc4cccc(Cl)c4F)n3)s2)n1 (stereo not drawn)
Result :: 1 to 4 µM

Query :: What value of MIC has been recorded for this entry: Cc1cc([N+](=O)[O-])nn1Cc1nnc(Nc2ccn(Cc3ccccc3Cl)n2)s1
Result :: > 10 µM

Query :: Using the record for Cc1csc(C(C)(O)c2nnc(Nc3ccn(Cc4c(F)cccc4F)n3)s2)n1 (racemic) , report its MIC.
Result :: ≤ 1 µM

Query :: // MIC lookup, key: Cc1cc(C)n(Cc2nnc(Nc3ccn(Cc4ccccc4)n3)s2)n1
Result :: > 10 µM

Query :: Sample O=[N+]([O-])c1ccn(Cc2nnc(Nc3ccn(Cc4ccccc4Cl)n3)s2)n1 — what was its MIC?
Result :: > 10 µM

Query :: Give its MIC value. Item: Cc1cc(C(F)F)nn1Cc1nnc(Nc2ccn(Cc3ccccc3Cl)n2)s1
Result :: > 10 µM

Query :: Requested field: MIC. Item: Cc1cc(C)n(C(C)c2nnc(Nc3ccn(Cc4cccc(F)c4F)n3)s2)n1 (stereo not drawn)
Result :: ≤ 1 µM

Query :: Fill in the blank: the reported MIC of Cc1cc(C)n(C(C)c2nnc(Nc3ccn(Cc4cccc(C)c4F)n3)s2)n1 (stereo not drawn) is ____.
Result :: ≤ 1 µM

Query :: Requested read-out: MIC. Entry: Cc1ccn(C(C)c2nnc(Nc3ccn(Cc4ccccc4Br)n3)s2)n1 (stereo not drawn)
Result :: 4 to 10 µM

Query :: Which MIC is listed for Cc1csc(C(C)(O)c2nnc(Nc3ccn(Cc4c(F)cccc4Cl)n3)s2)n1 (racemic) ?
Result :: ≤ 1 µM

Query :: Given the entry Cc1csc(C(C)(O)c2nnc(Nc3ccn(Cc4cccc(F)c4F)n3)s2)n1 (stereo not drawn) , report its measured MIC.
Result :: ≤ 1 µM

Query :: Recorded MIC for Cc1cc(C)n(C(C)c2nnc(Nc3ccn(Cc4ccc(C(F)(F)F)cc4)n3)s2)n1 (stereo not drawn) , please?
Result :: > 10 µM
